biological target: T1, wt MPER peptide (HIV-1, strain  (synthetic …)); assay: BLI; Octet Red; Mabs captured on anti-human IgG Fc biosensors (10 µg/mL), peptides or ES2 as analyte in solution, two-fold dilutions 500 nM to 7.81 nM, PBS pH 7.4, 0.2% Tween 20, 60 s association and 60 s dissociation, no lipid; Langmuir 1:1 fit; also used for the alanine-substituted MPER peptides; conditions: both partners purified
T1 construct: source: synthetic peptide (Genscript)
# koff >= 0.009 s⁻¹ gives Satisfied, anything below gives Not satisfied

BINDER	CAT
2F5 CDRH3 length-altered variant r4 (antibody, V domains shown) VH: RITLKESGPPLVKPTQTLTLTCSFSGFSLSDFGVGVGWIRQPPGKALEWLAIIYSDDDKRYSPSLNTRLTITKDTSKNQVVLVMTRVSPVDTATYFCAHRRGPLFGVARGPVNAMDVWGQGITVTISS VL: ALQLTQSPSSLSASVGDRITITCRASQGVTSALAWYRQKPGSPPQLLIYDASSLESGVPSRFSGSGSGTEFTLTISTLRPEDFATYYCQQLHFYPHTFGGGTRVDVR	Not satisfied
2F5 CDRH3 length-altered variant e4 (antibody, V domains shown) VH: RITLKESGPPLVKPTQTLTLTCSFSGFSLSDFGVGVGWIRQPPGKALEWLAIIYSDDDKRYSPSLNTRLTITKDTSKNQVVLVMTRVSPVDTATYFCAHRRGPTTGGLFGVGGPIARGPVNAMDVWGQGITVTISS VL: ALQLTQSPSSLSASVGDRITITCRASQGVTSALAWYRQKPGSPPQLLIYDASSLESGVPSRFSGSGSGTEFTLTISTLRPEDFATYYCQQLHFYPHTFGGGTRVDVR	Satisfied
2F5 CDRH3 length-altered variant r2 (antibody, V domains shown) VH: RITLKESGPPLVKPTQTLTLTCSFSGFSLSDFGVGVGWIRQPPGKALEWLAIIYSDDDKRYSPSLNTRLTITKDTSKNQVVLVMTRVSPVDTATYFCAHRRGPTLFGVIARGPVNAMDVWGQGITVTISS VL: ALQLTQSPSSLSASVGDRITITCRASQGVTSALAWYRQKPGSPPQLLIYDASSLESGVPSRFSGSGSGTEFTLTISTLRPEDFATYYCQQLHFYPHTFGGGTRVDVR	Not satisfied
2F5 CDRH3 length-altered variant e2 (antibody, V domains shown) VH: RITLKESGPPLVKPTQTLTLTCSFSGFSLSDFGVGVGWIRQPPGKALEWLAIIYSDDDKRYSPSLNTRLTITKDTSKNQVVLVMTRVSPVDTATYFCAHRRGPTTGLFGVGPIARGPVNAMDVWGQGITVTISS VL: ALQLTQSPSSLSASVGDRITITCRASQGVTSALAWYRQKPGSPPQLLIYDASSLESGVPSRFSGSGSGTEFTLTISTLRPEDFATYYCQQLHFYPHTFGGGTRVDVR	Not satisfied
2F5 CDRH3 length-altered variant r6 (antibody, V domains shown) VH: RITLKESGPPLVKPTQTLTLTCSFSGFSLSDFGVGVGWIRQPPGKALEWLAIIYSDDDKRYSPSLNTRLTITKDTSKNQVVLVMTRVSPVDTATYFCAHRRGLFGVRGPVNAMDVWGQGITVTISS VL: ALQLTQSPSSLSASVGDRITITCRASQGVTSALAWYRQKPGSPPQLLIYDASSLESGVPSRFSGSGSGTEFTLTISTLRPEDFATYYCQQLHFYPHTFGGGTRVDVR	Satisfied
